The values you see were collected from paper PMC9477280.

We begin with a simple list: items and their reported pEC50.
# Assayed target: EPEC flagella (Escherichia coli O127:H6 E2348/69 (EPEC), UniProt B7USU2)
# Sequence (B7USU2 2-548): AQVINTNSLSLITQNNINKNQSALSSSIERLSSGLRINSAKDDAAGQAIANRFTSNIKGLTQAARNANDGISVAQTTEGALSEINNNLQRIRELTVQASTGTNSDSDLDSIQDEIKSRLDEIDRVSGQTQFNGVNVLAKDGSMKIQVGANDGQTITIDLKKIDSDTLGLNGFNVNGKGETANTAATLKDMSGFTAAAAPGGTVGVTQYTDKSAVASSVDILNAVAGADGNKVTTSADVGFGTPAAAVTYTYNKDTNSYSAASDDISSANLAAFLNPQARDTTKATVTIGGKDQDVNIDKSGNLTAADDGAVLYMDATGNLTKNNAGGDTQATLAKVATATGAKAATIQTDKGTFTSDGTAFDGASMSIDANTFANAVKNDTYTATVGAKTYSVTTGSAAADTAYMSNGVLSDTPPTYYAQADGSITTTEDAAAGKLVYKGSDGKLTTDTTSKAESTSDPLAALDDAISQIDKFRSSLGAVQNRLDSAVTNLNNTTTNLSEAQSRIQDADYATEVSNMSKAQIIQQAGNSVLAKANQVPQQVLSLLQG
# Method summary: ELISA; dilution ELISA; purified antigen coated directly on Nunc Maxisorp wells, typically 1 μg/mL in PBS overnight at 4°C, blocked with 4% milk in PBS 0.1% Tween; thioredoxin/VHH/E-tag from 125 nM in 1:5 serial dilutions, 1 h 37°C; detected with HRP anti-E-tag; EC50 estimates (apparent affinity); Trace = EC50 >125 nM, poor but detectable
# Details: both partners purified
To interpret pEC50, take it as minus log10 of a concentration measured in moles per litre.

{"Binder": "JUV-C4 (VHH, also called αFla-2; JVE-4 (vector name); not shown: thioredoxin, N-terminal, kept; E-tag, C-terminal, kept) VHH: TGGGLVQAGGSLTLSCVASGRAVSSFAMGWFRQIPGREQRDFVAFIGDYGLTTYYANSVKGRFTISRSNAENTLYLQMNSLEFEDAAVYFCAARDAYRSGTTNPSAYDYWGQGTQVTVSS", "pEC50": 9.00}

Query: Return reported pEC50; argument: JWU-H4 (VHH, also called JXA-5 (vector name); not shown: thioredoxin, N-terminal, kept; E-tag, C-terminal, kept) VHH: TGGGSVQPGGSLRLSCAPSGFSLAYYGVGWFRQAPGKEREALACISRFGDDTYYADSAKGRFTVSRDNAKNTVYLEMNNLKPEDTGVYYCAAGWVVVTDESCGSGDAYNYWGRGTQVTVSS
Reply: 8.00

Query: Return reported pEC50; argument: JXE-B1 (VHH, also called JXK-1 (vector name); not shown: thioredoxin, N-terminal, kept; E-tag, C-terminal, kept) VHH: TGGGLVQAGDSLRLSCAASSGRNFSNYATGWFRQAPGKEQEFVASISRSGRSTYYADSAKGRFTISRDNARNTVYLQMNSLKPEDTADYYCAAHETQWPNGLGWVRGFYDLWGQGTQVTVSS
Reply: 10.00

Query: Return reported pEC50; argument: JWU-F3 (VHH, also called JXA-1 (vector name); not shown: thioredoxin, N-terminal, kept; E-tag, C-terminal, kept) VHH: SGGGLVQPGGSLRLTCVSSLSDFRLTNMAWYRQTPGSERDVVAGISPNGITSYHASVQDRFNISRDNARKTLFLQMNSLKPEDSGVYYCNIRWGSLLPWGQGTQVTVSP
Reply: 9.70
